# Target System: Fuc(a1-2)[GalNAc(a1-3)]Gal(b1-3)GlcNAc(b1-2)Man(a1-3)[Fuc(a1-2)[GalNAc(a1-3)]Gal(b1-3)GlcNAc(b1-2)Man(a1-6)]Man(b1-4)GlcNAc(b1-4)[Fuc(a1-6)]GlcNAc
# Measurement Protocol: glycan array binding signal (z-score within array); higher = stronger binding
# Protocol Conditions: glycan notation: IUPAC condensed, linker removed
Many of the other results were omitted from the sample, so the strongest signals are more common in it than they were.
Outcome label depends on glycan array binding signal (z-score) relative to -0.3: at/above gives MET, below gives NOT MET.

Reported glycan array binding signal (z-score) at or above -0.3? CC1G-11630 (Coprinopsis cinerea), A8P462 (protein) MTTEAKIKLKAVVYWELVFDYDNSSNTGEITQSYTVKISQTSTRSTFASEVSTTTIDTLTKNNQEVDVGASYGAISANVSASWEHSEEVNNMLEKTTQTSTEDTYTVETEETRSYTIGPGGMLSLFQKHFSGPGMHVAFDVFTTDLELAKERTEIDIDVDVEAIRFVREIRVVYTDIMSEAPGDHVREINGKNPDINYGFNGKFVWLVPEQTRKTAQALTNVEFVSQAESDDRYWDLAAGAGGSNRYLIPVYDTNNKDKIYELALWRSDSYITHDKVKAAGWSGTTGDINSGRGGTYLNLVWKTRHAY
MET

Similarly, SP15308B-bot-339-22-339 (Bacteroides ovatus) (protein) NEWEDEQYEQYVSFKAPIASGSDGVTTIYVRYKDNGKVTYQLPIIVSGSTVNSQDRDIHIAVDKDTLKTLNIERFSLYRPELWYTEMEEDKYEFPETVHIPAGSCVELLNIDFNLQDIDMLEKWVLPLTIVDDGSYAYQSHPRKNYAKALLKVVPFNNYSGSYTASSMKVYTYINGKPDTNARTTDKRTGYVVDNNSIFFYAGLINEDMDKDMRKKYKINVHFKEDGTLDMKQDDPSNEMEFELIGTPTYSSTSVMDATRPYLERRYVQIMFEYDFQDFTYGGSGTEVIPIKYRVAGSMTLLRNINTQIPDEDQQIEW ?
NOT MET

Similarly, RobpsCRA (Robinia pseudoacacia) (protein) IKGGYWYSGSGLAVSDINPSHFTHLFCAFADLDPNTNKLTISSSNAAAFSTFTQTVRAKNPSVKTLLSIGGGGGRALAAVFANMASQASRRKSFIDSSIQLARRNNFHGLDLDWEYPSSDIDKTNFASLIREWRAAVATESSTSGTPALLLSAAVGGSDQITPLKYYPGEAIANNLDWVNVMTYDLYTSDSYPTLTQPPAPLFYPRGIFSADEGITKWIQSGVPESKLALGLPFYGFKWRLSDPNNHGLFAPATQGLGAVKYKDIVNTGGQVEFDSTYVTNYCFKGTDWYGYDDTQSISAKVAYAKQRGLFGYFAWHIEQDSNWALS ?
MET

Similarly, LICBM33A (Lactococcus lactis), Q9CE94 (protein) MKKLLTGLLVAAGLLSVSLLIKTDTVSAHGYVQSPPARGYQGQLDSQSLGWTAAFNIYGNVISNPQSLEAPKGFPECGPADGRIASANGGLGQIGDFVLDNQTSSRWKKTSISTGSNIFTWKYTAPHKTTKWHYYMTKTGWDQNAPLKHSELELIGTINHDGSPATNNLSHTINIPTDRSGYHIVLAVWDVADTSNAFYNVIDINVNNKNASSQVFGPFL ?
MET

Similarly, AT3G09350(27) (Arabidopsis thaliana), Q84J81 (protein) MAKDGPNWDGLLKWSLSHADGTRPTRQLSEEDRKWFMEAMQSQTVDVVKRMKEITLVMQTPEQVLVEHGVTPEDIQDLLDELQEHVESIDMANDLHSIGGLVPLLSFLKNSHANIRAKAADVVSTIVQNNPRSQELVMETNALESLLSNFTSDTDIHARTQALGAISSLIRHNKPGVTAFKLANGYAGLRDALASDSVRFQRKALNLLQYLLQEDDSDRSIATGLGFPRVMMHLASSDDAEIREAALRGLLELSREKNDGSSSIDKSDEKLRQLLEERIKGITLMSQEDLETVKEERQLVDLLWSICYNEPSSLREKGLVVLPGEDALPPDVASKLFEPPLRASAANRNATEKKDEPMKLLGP ?
NOT MET

Similarly, Gal 8 (Homo sapiens), O00214_1 (protein) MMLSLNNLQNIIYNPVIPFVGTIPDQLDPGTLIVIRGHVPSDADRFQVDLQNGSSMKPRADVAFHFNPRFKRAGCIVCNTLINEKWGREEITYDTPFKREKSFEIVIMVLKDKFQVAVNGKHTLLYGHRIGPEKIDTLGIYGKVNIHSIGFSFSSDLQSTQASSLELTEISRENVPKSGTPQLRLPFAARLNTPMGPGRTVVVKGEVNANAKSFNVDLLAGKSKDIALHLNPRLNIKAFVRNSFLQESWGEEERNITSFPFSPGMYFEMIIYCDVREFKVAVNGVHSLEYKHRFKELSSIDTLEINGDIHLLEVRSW ?
MET
